Test system: SK-OV-3
protocol-details: NCI tumour cell line growth inhibition, 48 h
Calls of active or inactive are those of the source. Rule as the data show it: active = GI50 up to about 1.1 µM and inactive = higher. Numbered stars: 1 amine (or outer) side, 2 acyl side, 3 side chain; on linkers, the order of the positions; unused ones are H or OH. Bridge positions count the residues as written; N and C are the ends. Square brackets hold non-standard residues; d marks the D form. Peptide text beside a SMILES is read from it. * marks the point of attachment. ξ: configuration not given here. X33 = O=C(C(CCCCNO[*:3])N[*:1])[*:2]; Fmoc = O=C(OCC1c2ccccc2-c2ccccc21)*; ξW = NC(Cc1c[nH]c2ccccc12)C(=O)O; ξP = O=C(O)C1CCCN1
measured-parameter: GI50

>>> experimental_value("C=C(COCO)C(C)=O")
"48.9 µM (inactive)"

Batch request: GI50 for each of the following molecules.
1. COc1ccc(CCCNC(=O)c2cc(OC)c(OC)cc2CCO)cc1OC
2. O=C1C2=C(CCCCC2)C2CCCCC12O (stereo not given)
3. O=C1C(Cl)C(c2ccccc2O)N1n1cnc2ccccc2c1=O (stereo not given)

1: > 100 µM (inactive); 2: > 100 µM (inactive); 3: 25.1 µM (inactive)

Answer for every listed entry: what is its GI50? The entries follow.
1. Oc1ccc(-c2cc(-c3cc(-c4ccc(O)cc4)no3)on2)cc1
2. CN(NC(=O)c1ccco1)C1=NCCCCN1
3. CC(=O)CCC#Cc1ccccc1C(=O)C(C)=[N+]=[N-]
4. O=C(O)C(Cc1ccc(O)c([N+](=O)[O-])c1)N1C(=O)c2ccccc2C1=O (stereo not given)
5. COc1cc2c(cc1OC)[C@@H]([C@H](O)c1ccccc1)NCC2
6. COc1cc(/C=C2\C[C@H]3[C@@H]4CCc5cc(OCCN6CCCC6)ccc5[C@H]4CC[C@]3(C)C2=O)cc(OC)c1OC

1: > 100 µM (inactive); 2: > 100 µM (inactive); 3: 57.7 µM (inactive); 4: > 100 µM (inactive); 5: > 82.6 µM (inactive); 6: 2.7 µM (inactive)

# per-item lookup of GI50; items listed below
1. Cc1ccc2c(c1)C(C1Cc3cccc(C)c3C1=O)OC2=O (stereo not given)
2. CCCCCCCCCCCCC(Br)C(C)=O (stereo not given)

["> 100 µM (inactive)", "> 100 µM (inactive)"]

List reported GI50 for each of these molecules:
1. O=C1NC(=O)C(CC(C(=O)C(=O)Nc2ccccc2Cl)C(=O)c2ccc3ccccc3c2)C(=O)N1 (stereo not given)
2. O=C1Nc2ccc(Br)cc2C1=Nc1cccnc1
3. NC(=O)CNC(=O)C1CCCN1C(=O)C1CCCCNOC(=O)CC[C@@H](NC(=O)OCC2c3ccccc3-c3ccccc32)C(=O)NC(Cc2c[nH]c3ccccc23)C(=O)N1 (stereo not given in full) (Fmoc-[dE][ξW][X33][ξP]G-NH2; ester 1-3)
4. COc1ccc([C@@H]2OC(=O)C3C2C(=O)O[C@H]3c2ccc(OC)cc2)cc1 (stereo not given in full)
5. CC(=O)OCC1OC(N2C(=O)C(=O)c3ccccc32)C(OC(C)=O)C(OC(C)=O)C1OC(C)=O (stereo not given)
6. CC(C)OC(=O)C1Cc2c([nH]c3ccccc23)C(c2ccccc2)N1 (stereo not given)

["> 100 µM (inactive)", "47.5 µM (inactive)", "> 100 µM (inactive)", "> 100 µM (inactive)", "> 100 µM (inactive)", "> 100 µM (inactive)"]

Quick request: GI50 for each listed item, please.
1. Cc1cc(NS(=O)(=O)c2ccc(Nc3c4ccccc4nc4ccc(C(=O)Nc5ccc(S(=O)(=O)N=C(N)N)cc5)cc34)cc2)no1
2. Nc1nc(Cl)cc(/N=N\c2ccccc2)n1

1. > 100 µM (inactive)
2. 66.1 µM (inactive)
